FYI, the data here is from patent US8889667B2.

SUBJECT OF TEST: PKM2 (Homo sapiens)
EXPERIMENT SUMMARY: PKM2 Assay (activation, LDH-coupled, absorbance at 340 nm)
Assay type: biochemical
EXPERIMENTAL CONTEXT: Table 4
ENDPOINT LABEL: AC50

Worked examples, 4 molecules total:
C[C@@H]1CN(C(=O)OC2CCCCC2)CCN1C(=O)c1ccc(NS(=O)(=O)c2cccc3cccnc23)cc1    < 100 nM
C[C@@H]1CN(C(=O)c2ccccn2)CCN1C(=O)c1ccc(NS(=O)(=O)c2cccc3cccnc23)cc1    100 to 500 nM
CC1CN(Cc2cc(F)cc(F)c2F)CC(C)N1C(=O)c1ccc(NS(=O)(=O)c2cccc3cccnc23)cc1 (stereo not shown)    < 100 nM
O=C1CN(C(=O)c2ccc(NS(=O)(=O)c3cccc4cccnc34)cc2)CCN1Cc1cc(F)cc(F)c1    < 100 nM

Item: C[C@H]1CN(Cc2ccc(Cl)c(F)c2)CCN1C(=O)c1ccc(NS(=O)(=O)c2cccc3cccnc23)cc1 | System: PKM2 (Homo sapiens) | AC50: 100 to 500 nM

Item: O=C1CN(C(=O)c2ccc(NS(=O)(=O)c3cccc4cccnc34)cc2)CCN1CC1CC1 | System: PKM2 (Homo sapiens) | AC50: 100 to 500 nM

Item: C[C@H]1CN(Cc2cc(F)c(F)c(F)c2)CCN1C(=O)c1ccc(NS(=O)(=O)c2cccc3cccnc23)cc1 | System: PKM2 (Homo sapiens) | AC50: < 100 nM

* * *

SUBJECT OF TEST: PKM2 (Homo sapiens)
EXPERIMENT SUMMARY: PKM2 Assay (activation, LDH-coupled, absorbance at 340 nm)
Format: biochemical
EXPERIMENTAL CONTEXT: Table 4
ENDPOINT LABEL: AC50

CC(c1cc(F)cc(F)c1)N1CCN(C(=O)c2ccc(NS(=O)(=O)c3cccc4cccnc34)cc2)[C@H](C)C1 (stereo partly shown) [Compound 135]    < 100 nM
C[C@H]1CN(CC2CCC2)CCN1C(=O)c1ccc(NS(=O)(=O)c2cccc3cccnc23)cc1 [Compound 207]    100 to 500 nM
CC[C@H]1CN(C(C)c2cc(F)cc(F)c2)CCN1C(=O)c1ccc(NS(=O)(=O)c2cccc3cccnc23)cc1 (stereo partly shown) [Compound 161]    < 100 nM

Item: C[C@H]1CN(Cc2ccc(F)c(F)c2F)CCN1C(=O)c1ccc(NS(=O)(=O)c2cccc3cccnc23)cc1 [Compound 154] | System: PKM2 (Homo sapiens) | AC50: 100 to 500 nM

Item: CC1CN(Cc2ccc(Cl)c(F)c2)CC(C)N1C(=O)c1ccc(NS(=O)(=O)c2cccc3cccnc23)cc1 (stereo not shown) [Compound 197] | System: PKM2 (Homo sapiens) | AC50: 100 to 500 nM

Item: C[C@@H]1CN(C(=O)OCC2CCCO2)CCN1C(=O)c1ccc(NS(=O)(=O)c2cccc3cccnc23)cc1 (stereo partly shown) [Compound 128] | System: PKM2 (Homo sapiens) | AC50: < 100 nM

Item: C[C@H]1CN(CC2CCOC2)CCN1C(=O)c1ccc(NS(=O)(=O)c2cccc3cccnc23)cc1 (stereo partly shown) [Compound 139] | System: PKM2 (Homo sapiens) | AC50: 100 to 500 nM

* * *

SUBJECT OF TEST: PKM2 (Homo sapiens, UniProt P14618)
Sequence (P14618 whole entry): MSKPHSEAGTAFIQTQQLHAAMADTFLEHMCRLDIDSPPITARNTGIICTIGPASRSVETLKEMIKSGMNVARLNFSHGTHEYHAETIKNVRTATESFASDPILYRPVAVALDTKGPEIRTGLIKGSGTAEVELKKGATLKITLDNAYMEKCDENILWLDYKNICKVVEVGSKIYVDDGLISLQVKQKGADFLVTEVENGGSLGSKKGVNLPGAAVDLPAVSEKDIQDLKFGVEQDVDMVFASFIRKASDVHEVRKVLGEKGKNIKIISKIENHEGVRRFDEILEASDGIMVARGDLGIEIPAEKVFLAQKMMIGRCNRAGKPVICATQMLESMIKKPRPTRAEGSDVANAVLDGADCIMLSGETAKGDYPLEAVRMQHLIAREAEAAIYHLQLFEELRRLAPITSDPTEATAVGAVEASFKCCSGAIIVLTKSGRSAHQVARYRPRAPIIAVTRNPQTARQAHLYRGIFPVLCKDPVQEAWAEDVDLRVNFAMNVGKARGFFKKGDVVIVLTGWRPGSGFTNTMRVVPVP
EXPERIMENT SUMMARY: PKM2 Assay (activation, LDH-coupled, absorbance at 340 nm)
Format: biochemical
EXPERIMENTAL CONTEXT: Table 5
AC50 values, listed per item

Item: O=C(c1ccc(NS(=O)(=O)c2cccc3cccnc23)cc1)N1CCN(C(=O)C2CCOC2)CC1 (stereo not shown) | System: PKM2 (Homo sapiens, UniProt P14618) | AC50: 100 to 500 nM

Item: O=C(c1ccc(NS(=O)(=O)c2cccc3cccnc23)c(OC(F)(F)F)c1)N1CCN(Cc2ccc(Cl)cc2)CC1 | System: PKM2 (Homo sapiens, UniProt P14618) | AC50: 100 to 500 nM

Item: O=C(c1ccc(NS(=O)(=O)c2cccc3cccnc23)cc1)N1CCN(C(=O)c2ccno2)CC1 | System: PKM2 (Homo sapiens, UniProt P14618) | AC50: < 100 nM

Item: O=C(c1ccc(NS(=O)(=O)c2cccc3cccnc23)c(OC(F)(F)F)c1)N1CCN(C(=O)c2cocn2)CC1 | System: PKM2 (Homo sapiens, UniProt P14618) | AC50: 500 to 1000 nM

Item: [2H]C([2H])(c1cc(F)cc(F)c1)N1CCN(C(=O)c2ccc(NS(=O)(=O)c3cccc4cccnc34)cc2)CC1 | System: PKM2 (Homo sapiens, UniProt P14618) | AC50: < 100 nM

Item: O=C(c1cc(F)cc(F)c1)N1CCN(C(=O)c2ccc(NS(=O)(=O)c3cccc4cccnc34)c(OC(F)(F)F)c2)CC1 | System: PKM2 (Homo sapiens, UniProt P14618) | AC50: 100 to 500 nM

Item: O=C(c1ccc(NS(=O)(=O)c2cccc3cccnc23)cc1)N1CCN(C2(c3ccccc3)CCCC2)CC1 | System: PKM2 (Homo sapiens, UniProt P14618) | AC50: < 100 nM
